- SUBJECT_OF_TEST: human Keap1 kelch domain (amino acids Ala321 -Thr609) (Homo sapiens, UniProt Q14145)
- Construct: human Keap1 kelch domain (amino acids Ala321 -Thr609)
- Sequence (Q14145 321-609): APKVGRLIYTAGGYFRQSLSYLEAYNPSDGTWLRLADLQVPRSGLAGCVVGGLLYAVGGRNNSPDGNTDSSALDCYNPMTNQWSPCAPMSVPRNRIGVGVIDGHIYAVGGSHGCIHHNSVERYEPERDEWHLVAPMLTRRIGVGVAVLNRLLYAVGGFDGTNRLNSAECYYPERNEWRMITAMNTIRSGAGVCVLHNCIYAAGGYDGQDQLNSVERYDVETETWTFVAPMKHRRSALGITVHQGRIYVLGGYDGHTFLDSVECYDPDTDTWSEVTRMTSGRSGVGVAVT
- ASSAY_DETAILS: Keap1-Nrf2 peptide binding assay (fluorescence polarisation)
- STATED_CONDITIONS: Keap1 kelch domain 20 nM, fluorescently labeled Nrf2 peptide 50 nM, read-out: IC50
Form field: pIC50 (one value per entry).
Just so you know, pIC50 here is -log10 of the concentration in molar units; reply with that number alone.

stdin: Identify pIC50 associated with the molecule Cc1cc(C)c(C)c(S(=O)(=O)Nc2cc(-c3cncc(C(=O)O)c3)cc3ccccc23)c1C
stdout: 5.72

stdin: Please look at this molecule and report its pIC50: Cc1cc(C)c(C)c(S(=O)(=O)Nc2cc(-c3ccc(Cl)c(C(=O)O)c3)cc3ccccc23)c1C
stdout: 5.80

stdin: Provide pIC50 value for the following molecule: Cc1cc(C)c(C)c(S(=O)(=O)Nc2cc(-c3cc(F)cc(C(=O)O)c3)cc3ccccc23)c1C
stdout: 5.68

stdin: Supply recorded pIC50 for Cc1cc(C)c(C)c(S(=O)(=O)Nc2cc(-c3cccc(C(=O)O)c3F)cc3ccccc23)c1C here.
stdout: 5.25

stdin: Give pIC50 for the following molecule: Cc1cc(C)c(C)c(S(=O)(=O)Nc2cc(-c3ccc(C(=O)O)s3)cc3ccccc23)c1C
stdout: 4.92

Others:
stdin: Read the entry Cc1cc(C)c(C)c(S(=O)(=O)Nc2cc(-c3cc(Cl)cc(C(=O)O)c3)cc3ccccc23)c1C and write its reported pIC50.
stdout: 5.48

stdin: Return the recorded pIC50 value; entry: Cc1cc(C)c(C)c(S(=O)(=O)Nc2cc(-c3cc(C(=O)O)n(C)n3)cc3ccccc23)c1C
stdout: 5.24

stdin: Quote pIC50 reported for Cc1cc(C)c(C)c(S(=O)(=O)Nc2cc(-c3ccc(O)c(C(=O)O)c3)cc3ccccc23)c1C please.
stdout: 5.39

stdin: Provide measured pIC50 value, entry: Cc1cc(C)c(C)c(S(=O)(=O)Nc2cc(-c3ccc(F)c(C(=O)O)c3)cc3ccccc23)c1C
stdout: 5.74

###

- SUBJECT_OF_TEST: human Keap1 kelch domain (amino acids Ala321 -Thr609) (Homo sapiens)
- Construct: human Keap1 kelch domain (amino acids Ala321 -Thr609)
- ASSAY_DETAILS: Keap1-Nrf2 peptide binding assay (fluorescence polarisation)
- STATED_CONDITIONS: Keap1 kelch domain 20 nM, fluorescently labeled Nrf2 peptide 50 nM
Each entry below carries its reported pIC50.
To interpret pIC50, take it as minus log10 of a concentration measured in moles per litre.

Some solved entries appear below for comparison.
stdin: Item CC(=O)Nc1cc(C(=O)O)cc(-c2cc(NS(=O)(=O)c3c(C)c(C)cc(C)c3C)c3ccccc3c2)c1 : provide pIC50
stdout: 6.40

stdin: Annotate the compound Cc1cc(C)c(C)c(S(=O)(=O)Nc2cc(-c3cccc(C(=O)O)c3)cc3ccccc23)c1C with its measured pIC50.
stdout: 5.82

Others:
stdin: Hello, please tell me recorded pIC50 for this one: Cc1cc(C)c(C)c(S(=O)(=O)Nc2cc(-c3ccc(C(=O)O)cc3)cc3ccccc23)c1C
stdout: 5.60
